Data origin, for the record: patent US20120095193A1

Entries and their kon values follow.
Biological target: T1, human ADAMTS5 (human, UniProt Q9UNA0 262-622, limits assumed)
T1 construct: Octet and ELISA used 'recombinant human ADAMTS5'; also called recombinant human ADAMTS5; ADAMTS5 (R&D Systems 2198-AD)
T1 sequence: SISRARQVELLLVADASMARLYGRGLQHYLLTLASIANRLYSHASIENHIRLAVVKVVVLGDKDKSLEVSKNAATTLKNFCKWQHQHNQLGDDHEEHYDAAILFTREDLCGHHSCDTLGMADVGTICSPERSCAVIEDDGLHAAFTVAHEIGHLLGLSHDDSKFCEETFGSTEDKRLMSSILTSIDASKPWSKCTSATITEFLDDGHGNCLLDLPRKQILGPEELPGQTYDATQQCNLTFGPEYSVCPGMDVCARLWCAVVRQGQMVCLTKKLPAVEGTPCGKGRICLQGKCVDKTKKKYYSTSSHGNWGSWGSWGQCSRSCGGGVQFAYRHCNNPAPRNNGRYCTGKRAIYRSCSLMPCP
Assay: Biacore, mAb from culture supernatant captured on anti-human IgG, ADAMTS5 (R&D 2198-AD) at 64 nM, 1:1 fit
Report as a plain number; the unit M⁻¹ s⁻¹ is understood.

Take a look at these entries with their results.
BPC1646 (antibody, human IgG1, kappa, V domains shown, Humanized, human gamma 1 / kappa; also called 7B4 H5L1) VH: EVQLVESGGGLVQPGGSLRLSCAASGFTSSDAWMDWVRQAPGKGLEWVAEIRNKANNHARHYAESVKGRFTISRDNAKNSVYLQMNSLRAEDTAVYYCTRTYYYGSSYGYCDVWGQGTLVTVSS VL: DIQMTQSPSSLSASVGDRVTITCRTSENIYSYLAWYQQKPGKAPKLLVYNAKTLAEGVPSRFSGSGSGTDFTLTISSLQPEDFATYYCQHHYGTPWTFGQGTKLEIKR ... 1.79e+06
BPC1642 (antibody, human IgG1, kappa, V domains shown, Humanized, human gamma 1 / kappa; also called 7B4 H1L1) VH: EVQLVESGGGLVQPGGSLRLSCAASGFTFSDAWMDWVRQAPGKGLEWVAEIRNKANNHARHYAESVKGRFTISRDNAKNSLYLQMNSLRAEDTAVYYCTRTYYYGSSYGYCDVWGQGTLVTVSS VL: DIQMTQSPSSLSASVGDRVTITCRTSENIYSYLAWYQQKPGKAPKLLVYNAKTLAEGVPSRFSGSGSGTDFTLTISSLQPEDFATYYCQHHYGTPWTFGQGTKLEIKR ... 887000
BPC1656 (antibody, human IgG1, kappa, V domains shown, Humanized, human gamma 1 / kappa; also called 12F4 H1L0) VH: EVQLLESGGGLVQPGGSLRLSCAASGFTFSDAWMDWVRQAPGKGLEWVSEIRHKANDHAIFYDESVKGRFTISRDNSKNTLYLQMNSLRAEDTAVYYCTSPFAYWGQGTLVTVSS VL: DIQMTQSPSSLSASVGDRVTITCKASQSVGTTIVWYQQKPGKAPKLLIYSASNRHTGVPSRFSGSGSGTDFTLTISSLQPEDFATYYCQQYTSYPFTFGQGTKLEIKR ... 633000
BPC1636 (antibody, human IgG1, kappa, V domains shown, Humanized, human gamma 1 / kappa; also called 7B4 H2L0) VH: EVQLVESGGGLVQPGGSLRLSCAASGFTSSDAWMDWVRQAPGKGLEWVAEIRNKANNHARHYAESVKGRFTISRDNAKNSLYLQMNSLRAEDTAVYYCARTYYYGSSYGYCDVWGQGTLVTVSS VL: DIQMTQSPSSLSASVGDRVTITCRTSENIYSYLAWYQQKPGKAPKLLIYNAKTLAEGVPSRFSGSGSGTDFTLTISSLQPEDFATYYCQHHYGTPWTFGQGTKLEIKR ... 1.07e+06

We next turn to a different binder, shown below.
*Q* I would be grateful if you could share the reported kon for BPC1653 (antibody, human IgG1, kappa, V domains shown, Humanized, human gamma 1 / kappa; also called 7B4 H5L2) VH: EVQLVESGGGLVQPGGSLRLSCAASGFTSSDAWMDWVRQAPGKGLEWVAEIRNKANNHARHYAESVKGRFTISRDNAKNSVYLQMNSLRAEDTAVYYCTRTYYYGSSYGYCDVWGQGTLVTVSS VL: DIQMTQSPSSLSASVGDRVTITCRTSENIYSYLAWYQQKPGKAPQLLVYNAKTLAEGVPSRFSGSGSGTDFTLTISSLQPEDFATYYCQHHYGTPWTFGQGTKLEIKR .
*A* 2.24e+06
